Listed binders paired with reported OD450
# assay-target: T1, Human CD19-his protein (human, UniProt P15391 20-291)
# T1 construct: bought protein; also called human CD19 protein; recombinant human CD19-His; not shown: His tag
# T1 sequence (looked up): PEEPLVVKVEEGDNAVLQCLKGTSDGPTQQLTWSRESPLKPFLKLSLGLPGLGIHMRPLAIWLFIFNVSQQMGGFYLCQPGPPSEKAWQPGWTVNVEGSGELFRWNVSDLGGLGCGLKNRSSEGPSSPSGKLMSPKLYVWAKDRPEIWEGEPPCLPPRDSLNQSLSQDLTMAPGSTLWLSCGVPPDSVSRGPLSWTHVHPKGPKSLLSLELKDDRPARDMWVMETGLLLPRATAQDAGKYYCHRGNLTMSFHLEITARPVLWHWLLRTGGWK
# assay: ELISA, antibody at 10 nM
The answer should be written as a number, with no unit following it.

Use the examples below as a reference point.
F3.64.4 (antibody, human IgG1, V domains shown, human-murine chimeric antibody, human IgG1) VH: EVQLQQSGPELVKPGASVKISCKASGYTFTDYHINWVKQSHGKSPEWIGDINPNNGGTTYNQKFKDKATLTVDKSSSTAFMELRSLTSEDSAVYYCARFITTVVAWYFDVWGTGTTVTVSS VL: DIQMTQSPASLSVSVGETVTITCRASENIYSNLAWYQQKQGKSPQLLVYAATNLADGVPSRFSGSGSGTQYSLKINSLQSEDFGNYYCQRFWDTPRTFGGGTKLEIK = 1
F5.10.6 (antibody, human IgG1, V domains shown, human-murine chimeric antibody, human IgG1) VH: DVQLQESGPGLVKPSQSLSLTCSVTDYSITSGYYWTWIRQFPGNKLEWMGYISYDGSTNYNPSLKNRFSITRDTSKNQFFLKLNSVIIEDTATYYCARDRMSTTWYFDVWGTGTTVTVSS VL: DIVLTQSPASLAVSLGQRATISCRASESVDNYGISFMHWYQQKPGQPPKLLIYRASKTESGIPARFSGSGSRTDFTLTINPVETDDVATYYCQQSNKYPRTFGGGTKVEIK = 1.76
F4.152.7 (antibody, human IgG1, V domains shown, human-murine chimeric antibody, human IgG1) VH: QVQLQQPGAELVKPGASVKLSCKASGYTFTSYWMHWVKQRPGQGLEWIGEIDPSDSYTNYNQKFKGKATLTADKSSSTAYMQLSGLTSEDSAVYHCARGGDYDGYYVMDYWGQGTSVTVSS VL: EIVLTQSPTTMAASPGEKITITCSASSSISSNYLHWYQQKPGFSPKLLIYRTSNLASGVPARFSGSGSGTSYSLTIGTMEADDVATYYCQQGSYIPRIFTFGSGTKLEIK = 2.01
F3.133.14 (antibody, human IgG1, V domains shown, human-murine chimeric antibody, human IgG1) VH: QVQLQQPGAELVMPGASVKLSCKASGYTFTNYWMHWVKQRPGQGLEWIGEIDPSDYYANYNQKFKGKATLTVDKSSSTAYMQLSSLTSEDSAVYYCARSHYYANSYNYWGQGTTLTVSS VL: EIELTQSPTTMAASPGEKITITCSASSSISSDYLHWYQQKPGFSPKLLIYRTSNLASGLPARFSGSGSGTSYSLTIGTMEAEDVATYYCQQGSSVPRMLTFGAGTKLELK = 1.87
F3.114.12 (antibody, human IgG1, V domains shown, human-murine chimeric antibody, human IgG1) VH: DVQLQESGPGLVKPSQSLSLTCSVTGYSITSGYDWNWIRQFPGNKLEWMGYISYDGKNNYNPSLRNRISITRDTSKNQFFLKLNSVTTEDTATYYCARRDLRGYFDVWGTGTTVTVSS VL: DIVLTQSPATLSVTPGDRVSLSCRASQSISNYLHWYQQKSHESPRLLIKYASLSISGIPSRFSGSGSGTDFTLSINSVETEDFGVYFCQQSNSWPLTFGAGTKLELK = 0.46
F4.107.12 (antibody, human IgG1, V domains shown, human-murine chimeric antibody, human IgG1) VH: EVQLQQSGPELVKPGASVKMSCKASGYTFTSYVLHWVRQKPGQGLEWIGYFNPYNDGTEYNEKFKGKAILTSDKSSSTAYMELNSLTSEDSAVYYCVGGTYYYGSSYPFAYWGQGTLVTVST VL: DVVMTQISLSLPVSLGDQASISCRSSQSLIHSNGNTYLQWYLQKPGQSPKLLIYKVSNRLSGVPDRFSGSGSGTDFTLKISRVEAEDLGVYFCSQSTHVPYTFGGGTKLEIK = 1.75
F4.18.13 (antibody, human IgG1, V domains shown, human-murine chimeric antibody, human IgG1) VH: QVQLQQSGPELVKPGASVKISCKASGYAFSSFWMNWVKQRPGEGLEWIGRIYPGDGDTNYNGKFKGKATLTADDSSSTAYMQLSSLTSVDSAVYFCAREVIAAVVTTDFDYWGQGTTLTVSS VL: DIQMTQTTSSLSASLGDRVTISCRTSQDISNYLNWYLQKPDGTVKLLIYYTSGLHSGVPSRFSGSGSGTDYSLTISNLEPEDIATYFCQQGKTLPYTFGGGTKLEIK = 1.96
F4.96.6 (antibody, human IgG1, V domains shown, human-murine chimeric antibody, human IgG1) VH: EIQLQQSGPELVKPGASVKVSCKASGYAFSAYNIYWVKQSHGKSLEWIGYIDPYNSGTTYNQKFRGKATLTVDKSSNTAYMHLSSLTSEDSAVYYCTRDGDAMDYWGQGTSVTVSS VL: EILLTQSPAIIAASPGEKVTITCSASSGVIYMNWYQQKPGSSPKIWIYDVSTLASGVPARFSGSGSGTSFSFTINSMEAEDVATYYCQQRSSYPYTFGGGTKLEIK = 1.16
F4.78.1 (antibody, human IgG1, V domains shown, human-murine chimeric antibody, human IgG1) VH: QVQIQQSGAELARPGASVKLSCKASGYTFTNYWMQWIKQRPGQGLEWIGAIYPGDGDTRYTQKFKGKATLTADKSSSTAYMQLSSLASEDSAVYYCAREEVWSPYGMDYWGQGTSVTVSS VL: QIVLTQSPAIMSASPGEKVTITCSASSSVSYMGWFQQKPGTSPKLWIYSTSNLASGVPARFSGSGSGTSYSLTISRMEAEDAATYYCQQRSIYPLTFGAGTKLELK = 1.94
F4.191.1 (antibody, human IgG1, V domains shown, human-murine chimeric antibody, human IgG1) VH: QVQLQQPGAELVRPGASVKLSCKASGYTFTSYWINWVKQRPGQGLEWIGNIHPSDSYTNYNQKFKDKATLTVDKSSSTAYMQFSSPTSEDSAVYYCTREDYYYGSNYDAMDYWGQGTSVTVSS VL: DIVMTQSHKFMSTSVGDRVNITCKASQDVGSSVAWYQQKPGQSPKLLIYWASTRHAGVPDRFTGSGSGADFTLTISNVQSEDLADYFCQQYSTYPLTFGAGTKLELK = 1.43

## Task Name the reported OD450 value associated with the binder F2.15.26 (antibody, human IgG1, V domains shown, human-murine chimeric antibody, human IgG1) VH: QVQLKESGPGLVAPSQSLSITCTVSGFSLTDYGVSWIRQSPGKGLEWLGVIWGSGDTYYNSVLESRLSINKDNSKNQVFLKMNSLQTDDAAMYFCAKHSYYGGSFAMDYWGQGTSVTVSS VL: DIQMTQTTSSLSASLGDRVTISCRASQDISNYLNWYQQKPDGTVKLLIYYTSRLHSGVPSRFSGSGSGTDYSLTISNLEQEDIATYFCQQGKTLPWTFGGGTKLEIK
## Result 1.4
